Test: Thermo-Gravimetric Analysis (TGA)
Assay type: physicochemical
Details: room temperature to 100 °C
Counter-ions that a name gives are not always drawn.
readout: TGA weight loss

Prompt: Give the measured TGA weight loss of CN[C@@]1(c2ccc(F)cc2)CCCCC1=O [1R HCl Form 1] .
Response: 0.34%

* * *

Test: Thermo-Gravimetric Analysis (TGA)
Format: physicochemical
Conditions: by 100 °C

{"compound": "CN[C@@]1(c2ccc(F)cc2)CCCCC1=O [Phos-1]", "TGA weight loss": "about 0.11%"}
{"compound": "CN[C@@]1(c2ccc(F)cc2)CCCCC1=O [Mal-2]", "TGA weight loss": "about 0.11%"}

* * *

Test: Approximate solubility in 20 solvents
Assay type: physicochemical
Conditions: dcm, organic solvent or mixture, DCM, RT; read-out: Solubility
Where a name gives a salt, the structure may show the parent alone.
readout: solubility

Prompt: Give the measured solubility of CN[C@@]1(c2ccc(F)cc2)CCCCC1=O [1R HCl Form 1] .
Response: > 300 mg/mL

* * *

Assay: Approximate solubility in 20 solvents
Format: physicochemical
Conditions: npa, RT; read-out: Solubility
Experimental: The approximate solubility of the crystalline hydrochloride salt product of Example 1 (1R HCl Form 1) was estimated in 20 solvents as follows: Approximately 10 mg of the product of Example 1 is placed into a 4.0 mL vial, to which 25 μL of solvent at RT is added, and then the vial with its contents is shaken and stirred. If no clear solution is obtained, another 25 μL of solvent is added to the vial and then the vial with its contents is shaken and stirred again. […]
Structures can show the parent of a compound that is named as a salt.
readout: solubility

Prompt: Give the measured solubility of CN[C@@]1(c2ccc(F)cc2)CCCCC1=O [1R HCl Form 1] .
Response: 51 to 69 mg/mL

* * *

Experiment: Approximate solubility in 20 solvents
Type: physicochemical
Conditions: acn, organic solvent or mixture, ACN, RT; read-out: Solubility
Where a name gives a salt, the structure may show the parent alone.
readout: solubility

Prompt: Give the measured solubility of CN[C@@]1(c2ccc(F)cc2)CCCCC1=O [1R HCl Form 1] .
Response: 32 to 38 mg/mL

* * *

Assay: Approximate solubility in 20 solvents
Assay type: physicochemical
Conditions: thf, organic solvent or mixture, THF, RT; read-out: Solubility
Counter-ions that a name gives are not always drawn.
readout: solubility

Prompt: Give the measured solubility of CN[C@@]1(c2ccc(F)cc2)CCCCC1=O [1R HCl Form 1] .
Response: < 3 mg/mL

* * *

Assay: Approximate solubility in 20 solvents
Type: physicochemical
Details: 1,4-dioxane, organic solvent or mixture, 1,4-Dioxane, RT; read-out: Solubility
Where a name gives a salt, the structure may show the parent alone.
readout: solubility

Prompt: Give the measured solubility of CN[C@@]1(c2ccc(F)cc2)CCCCC1=O [1R HCl Form 1] .
Response: 2900 to 3300 µg/mL

* * *

Assay: Approximate solubility in 20 solvents
Type: physicochemical
Conditions: mek, RT; read-out: Solubility
Counter-ions that a name gives are not always drawn.
readout: solubility

Prompt: Give the measured solubility of CN[C@@]1(c2ccc(F)cc2)CCCCC1=O [1R HCl Form 1] .
Response: 3100 to 3700 µg/mL

* * *

Assay: Approximate solubility in 20 solvents
Assay type: physicochemical
Details: ipa, organic solvent or mixture, IPA, RT; read-out: Solubility
Structures can show the parent of a compound that is named as a salt.
readout: solubility

Prompt: Give the measured solubility of CN[C@@]1(c2ccc(F)cc2)CCCCC1=O [1R HCl Form 1] .
Response: 50 to 67 mg/mL
